Molecular target: UniProt O43614
Sequence (O43614 whole entry): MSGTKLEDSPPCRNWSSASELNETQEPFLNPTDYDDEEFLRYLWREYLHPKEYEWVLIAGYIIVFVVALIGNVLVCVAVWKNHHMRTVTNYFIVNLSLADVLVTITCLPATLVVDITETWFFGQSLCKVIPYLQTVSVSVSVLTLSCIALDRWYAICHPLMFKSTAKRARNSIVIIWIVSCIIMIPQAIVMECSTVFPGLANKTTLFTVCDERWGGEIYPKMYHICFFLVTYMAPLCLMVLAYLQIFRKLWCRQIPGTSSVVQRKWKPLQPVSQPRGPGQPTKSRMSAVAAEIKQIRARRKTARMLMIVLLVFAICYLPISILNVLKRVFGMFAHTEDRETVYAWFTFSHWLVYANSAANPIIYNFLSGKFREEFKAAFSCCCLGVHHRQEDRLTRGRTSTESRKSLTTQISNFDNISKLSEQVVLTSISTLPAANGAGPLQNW
Test: Inhibition of human orexin-2 receptor expressed in CHO cells assessed as calcium release preincubated for 120 mins followed by addition of orexin-A by fluo-4 AM based-FLIPR analysis
pIC50: −log10 of the molar value.
Below is a list of entries, each paired with its recorded pIC50 value.
experimental.readout: pIC50

- compound: "COc1ccc(C[C@@H]2CCCN2C(=O)c2nc(C)sc2-c2ccc(F)cc2)cc1OC"
  observed: 7.21
- compound: "Cc1cccc(-c2sc(C)nc2C(=O)N2CCC[C@H]2Cc2ccc3c(c2)OCCO3)c1"
  observed: 7.41
- compound: "COc1cccc(-c2sc(C)nc2C(=O)N2CCC[C@H]2Cc2ccc(OC)c(OC)c2)c1"
  observed: 8.11
- compound: "COc1ccc(C[C@@H]2CCCN2C(=O)c2nc(C)sc2-c2cccc(C)c2)cc1OC"
  observed: 8.51
- compound: "COc1ccc(C[C@@H]2CCCN2C(=O)c2nc(C)sc2-c2ccc3c(c2)OCO3)cc1OC"
  observed: 8.18
- compound: "COc1cccc(CCC2CCCCN2C(=O)c2cc(C)ccc2-n2nccn2)c1 (racemic)"
  observed: 6.61
- compound: "CCn1cc(C(=O)N2CCc3ccsc3C2Cc2ccc(OC)c(OC)c2)c2ccccc21 (racemic)"
  observed: 8.85
- compound: "Cc1cccc(-c2sc(C)nc2C(=O)N2CCC[C@H]2Cc2ccc(C)c(Cl)c2)c1"
  observed: 8.00

----------
assay: Clearance in rat; format: ADME, organism-based; conditions: in vivo
experimental.readout: clearance (mL/min/kg)

- cpd.smiles: "COc1ccc(C[C@@H]2CCCN2C(=O)c2cc(C)ccc2-n2nccn2)cc1OC"
  unit: "mL/min/kg"
  observed: 55

----------
assay: Drug uptake in Wistar rat brain at 100 mg/kg, po measured 3 hrs post dose; type: ADME, organism-based; conditions: read-out: Drug uptake
Below is a list of entries, each paired with its recorded concentration at 3 h value.

- cpd.smiles: "COc1ccc(C[C@@H]2CCCN2C(=O)c2nccnc2-c2cccc(C)c2)cc1OC"
  concentration at 3 h [ng/mL]: 89
- cpd.smiles: "COc1ccc(C[C@@H]2CCCN2C(=O)c2nc(C)sc2-c2cccc(C)c2)cc1OC"
  concentration at 3 h [ng/mL]: 125
- cpd.smiles: "COc1ccc(C[C@@H]2CCCN2C(=O)c2ccccc2-n2nccn2)cc1OC"
  concentration at 3 h [ng/mL]: 45
- cpd.smiles: "COc1ccc(C[C@@H]2CCCN2C(=O)c2ccccc2-c2ncccn2)cc1OC"
  concentration at 3 h [ng/mL]: 134

----------
Below is a list of entries, each paired with its recorded pIC50 value.
biological target: Orexin/Hypocretin receptor type 1 (Homo sapiens); test: Inhibition of human orexin-1 receptor expressed in CHO cells assessed as calcium release preincubated for 120 mins followed by addition of orexin-A by fluo-4 AM based-FLIPR analysis
pIC50: −log10 of the molar value.
experimental.readout: pIC50

- compound: "COc1cc(C[C@@H]2CCCN2C(=O)c2nc(C)sc2-c2cccc(C)c2)cc(OC)c1"
  observed: 8.47
- compound: "COc1cccc(-c2sc(C)nc2C(=O)N2CCC[C@H]2Cc2ccc(OC)c(OC)c2)c1"
  observed: 7.96
- compound: "COc1ccc(C[C@@H]2CCCN2C(=O)c2nc(C)sc2-c2cccc(Cl)c2)cc1OC"
  observed: 8.04
- compound: "COc1ccc(CCC2CCCCN2C(=O)c2cc(C)ccc2-n2nccn2)cc1OC (racemic)"
  observed: 7.55
- compound: "Cc1cccc(-c2sc(C)nc2C(=O)N2CCC[C@H]2Cc2ccc(C)c(Cl)c2)c1"
  observed: 7.89
- compound: "CCn1cc(C(=O)N2CCCCC2Cc2ccc(OC)c(OC)c2)c2ccccc21 (racemic)"
  observed: 7.55
- compound: "COc1ccc(C[C@@H]2CCCN2C(=O)c2nc(C)ccc2-c2ncccn2)cc1OC"
  observed: 7.22
- compound: "COc1ccc(C[C@@H]2CCCN2C(=O)c2nc(C)sc2-c2ccc3c(c2)OCO3)cc1OC"
  observed: 7.96
- compound: "COc1ccc(CC2CCCCN2C(=O)c2cc(C)ccc2-n2nccn2)cc1OC (racemic)"
  observed: 8.57

----------
Below is a list of entries, each paired with its recorded IC50 value.
Target: Orexin/Hypocretin receptor type 1 (Homo sapiens, UniProt O43613)
Sequence (O43613 whole entry): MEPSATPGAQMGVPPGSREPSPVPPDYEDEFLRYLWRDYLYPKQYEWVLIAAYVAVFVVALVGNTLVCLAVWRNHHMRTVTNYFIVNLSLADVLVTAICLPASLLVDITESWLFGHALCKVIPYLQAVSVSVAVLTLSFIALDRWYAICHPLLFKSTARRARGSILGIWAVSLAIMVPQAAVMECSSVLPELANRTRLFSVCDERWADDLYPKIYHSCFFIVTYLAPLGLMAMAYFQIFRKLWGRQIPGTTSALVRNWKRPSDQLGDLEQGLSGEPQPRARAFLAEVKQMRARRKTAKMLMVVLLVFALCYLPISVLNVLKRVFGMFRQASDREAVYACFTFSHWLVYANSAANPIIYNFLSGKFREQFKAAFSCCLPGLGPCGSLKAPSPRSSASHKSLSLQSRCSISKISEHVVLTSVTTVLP
Assay: Inhibition of human orexin-1 receptor expressed in CHO cells assessed as calcium release preincubated for 120 mins followed by addition of orexin-A by fluo-4 AM based-FLIPR analysis
experimental.readout: IC50 (nM)

- cpd.smiles: "COc1ccc(C[C@@H]2CCCN2C(=O)c2nc(C)sc2-c2ccc3c(c2)CCO3)cc1OC"
  observed: 8.3
- cpd.smiles: "Cc1cccc(-c2sc(C)nc2C(=O)N2CCC[C@H]2Cc2ccc3c(c2)OCCO3)c1"
  observed: 35
- cpd.smiles: "COc1ccc(C[C@@H]2CCCN2C(=O)c2ccccc2-c2nc(C)no2)cc1OC"
  observed: 33
- cpd.smiles: "Cc1cccc(-c2sc(C)nc2C(=O)N2CCC[C@H]2Cc2ccc(Cl)c(Cl)c2)c1"
  observed: 22
- cpd.smiles: "COc1ccc(C[C@@H]2CCCN2C(=O)c2nc(C)sc2-c2cccc(C)c2)cc1Cl"
  observed: 3.8
- cpd.smiles: "COc1ccc(C[C@@H]2CCCN2C(=O)c2cc(C)ccc2-n2nccn2)cc1OC"
  observed: 8.5
- cpd.smiles: "Cc1cccc(-c2sc(C)nc2C(=O)N2CCC[C@H]2Cc2ccc3c(c2)OCO3)c1"
  observed: 64
- cpd.smiles: "COc1ccc(C[C@@H]2CCCN2C(=O)c2cc(C)ccc2-n2cccn2)cc1OC"
  observed: 45
- cpd.smiles: "COc1ccc(C[C@@H]2CCCN2C(=O)c2nc(C)sc2-c2cccc(C)c2)cc1OC"
  observed: 3.5
- cpd.smiles: "COc1cccc(C[C@@H]2CCCN2C(=O)c2nc(C)sc2-c2cccc(C)c2)c1Cl"
  observed: 26

----------
assay: Solubility of compound in unbuffered water at pH 4.1; type: physicochemical
experimental.readout: solubility (µg/mL)

- compound: "COc1ccc(C[C@@H]2CCCN2C(=O)c2cc(C)ccc2-n2nccn2)cc1OC"
  observed: 160
- compound: "CCn1cc(C(=O)N2CCc3ccsc3C2Cc2ccc(OC)c(OC)c2)c2ccccc21 (racemic)"
  observed: 7

----------
target: Orexin/Hypocretin receptor type 1 (Homo sapiens, UniProt O43613); assay: Inhibition of human orexin-1 receptor expressed in CHO cells assessed as calcium release preincubated for 120 mins followed by addition of orexin-A by fluo-4 AM based-FLIPR analysis
pIC50: −log10 of the molar value.

- compound: "CCn1cc(C(=O)N2CCc3ccsc3C2Cc2ccc(OC)c(OC)c2)c2ccccc21 (racemic)"
  pIC50: 8.27
- compound: "COc1ccc(Cl)c(C[C@@H]2CCCN2C(=O)c2nc(C)sc2-c2cccc(C)c2)c1"
  pIC50: 7.48
- compound: "COc1ccc(C[C@@H]2CCCN2C(=O)c2ccccc2-n2nccn2)cc1OC"
  pIC50: 7.80
- compound: "COc1ccc(-c2sc(C)nc2C(=O)N2CCC[C@H]2Cc2ccc(OC)c(OC)c2)cc1"
  pIC50: 7.77
- compound: "COc1cccc(CCC2CCCCN2C(=O)c2cc(C)ccc2-n2nccn2)c1 (racemic)"
  pIC50: 6.97
- compound: "COc1ccc(C[C@@H]2CCCN2C(=O)c2ccccc2-c2ncccn2)cc1OC"
  pIC50: 7.80
- compound: "COc1ccc(C[C@@H]2CCCN2C(=O)c2nc(C)sc2-c2ccc(F)cc2)cc1OC"
  pIC50: 6.95
- compound: "COc1ccc(C[C@@H]2CCCN2C(=O)c2nccnc2-c2cccc(C)c2)cc1OC"
  pIC50: 7.64
- compound: "COc1ccc(CC2c3sccc3CCN2C(=O)c2cc(C)ccc2-n2nccn2)cc1OC (racemic)"
  pIC50: 6.88
